# run-parameters: pampa; 60.0 min; 50.0 µM
measure-name: Papp (×10⁻⁶ cm/s)
Give a bare numeral; the unit ×10⁻⁶ cm/s is implied.

{"compound": "CC(C)N(CCCNC(=O)Nc1ccc(C(C)(C)C)cc1)C[C@H]1O[C@@H](n2cc(Br)c3c(N)ncnc32)[C@H](O)[C@@H]1O", "Papp [×10⁻⁶ cm/s]": 6.2}
{"compound": "CCN(CC)CC(=O)Oc1ccc(NC(C)=O)cc1", "Papp [×10⁻⁶ cm/s]": 7}
{"compound": "CSc1nc(N)cc(Oc2ccc(-c3nc(Nc4cccc(C(F)(F)F)c4)n[nH]3)cc2)n1", "Papp [×10⁻⁶ cm/s]": 53.8}

Recorded Papp (compound CCCC(C)(COC(N)=O)COC(=O)NC(C)C (stereo not given) ): 11

---

# run-parameters: pampa; 60.0 min; 50.0 µM
Listed next: entries and their corresponding Papp.

Please review the following examples before continuing.
{"compound": "Cc1onc(-c2c(F)cccc2Cl)c1C(=O)N[C@@H]1C(=O)N2[C@@H]1SC(C)(C)[C@@H]2C(=O)O", "Papp": "28 ×10⁻⁶ cm/s"}
{"compound": "COc1cc(OC)c(OC)cc1CN1CCc2nc(N3CCN(c4ccccc4F)CC3)ncc2C1", "Papp": "> 300 ×10⁻⁶ cm/s"}
{"compound": "C[C@@H]1C[C@@H](O)[C@]2(O)O[C@@H]3C[C@@]4(C=O)C(CC[C@@H]5C4CC[C@]4(C)[C@@H](C6=CC(=O)OC6)CC[C@]54O)C[C@H]3O[C@@H]2O1 (stereo not given in full)", "Papp": "< 1 ×10⁻⁶ cm/s"}

Recorded Papp (compound `N=c1c2c(-c3ccccc3)cn(Cc3ccccc3)c2ncn1Cc1ccco1` ): 226 ×10⁻⁶ cm/s

Recorded Papp (compound `Cn1nnnc1SCC1=C(C(=O)O)N2C(=O)[C@@H](NC(=O)[C@H](OC=O)c3ccccc3)[C@H]2SC1` ): < 1 ×10⁻⁶ cm/s

---

# run-parameters: pampa; 60.0 min; 50.0 µM
Categorized via Papp: band A (below 20 ×10⁻⁶ cm/s), band B (20 ×10⁻⁶ cm/s to below 200 ×10⁻⁶ cm/s), band C (200 ×10⁻⁶ cm/s or more)

{"molecule": "C[n+]1c2cc(N)ccc2cc2ccc(N)cc21", "assigned-category": "band A"}
{"molecule": "Cc1cccc(-n2nnnc2S(C)(=O)=O)c1", "assigned-category": "band B"}
{"molecule": "CON=C(C(=O)N[C@@H]1C(=O)N2C(C(=O)O)=C(Cn3ccc(=N)n3CCO)CS[C@H]12)c1csc(N)n1", "assigned-category": "band A"}
{"molecule": "CN(CCCCCCN(C)C(=O)Oc1ccc[n+](C)c1)C(=O)Oc1ccc[n+](C)c1", "assigned-category": "band A"}
{"molecule": "CC1(C)CC(=O)c2c(C(F)(F)F)nn(-c3ccc(C(N)=O)c(NC4CCC(O)CC4)c3)c2C1 (stereo not given)", "assigned-category": "band B"}

Query string: Class (by measured Papp) for `CCOC(=O)c1ccc(NC(=O)c2sc3nc4c(cc3c2N)N2CCC4CC2)cc1`
Result string: band C

Query string: Class (by measured Papp) for `CON(C)Cc1ccc(O)c2c1C[C@H]1C[C@H]3[C@H](N(C)C)C(=O)C(C(N)=O)=C(O)[C@@]3(O)C(=O)C1=C2O`
Result string: band A

Query string: Class (by measured Papp) for `O=C1c2c(O)ccc(O)c2C(=O)c2c(NCCNCCO)ccc(NCCNCCO)c21`
Result string: band A

Query string: Class (by measured Papp) for `Oc1c(Cl)cc(Cl)cc1Sc1cc(Cl)cc(Cl)c1O`
Result string: band C

Query string: Class (by measured Papp) for `Cc1cc(C)nc(NC(=S)N2CCN(c3ccc(C(F)(F)F)cn3)CC2)c1`
Result string: band B

Query string: Class (by measured Papp) for `O=C(CBr)N1CC([N+](=O)[O-])([N+](=O)[O-])C1`
Result string: band A

Query string: Class (by measured Papp) for `N=c1c2c(-c3ccccc3)c(-c3ccccc3)n(CCc3ccccc3)c2ncn1CCCCO`
Result string: band C

Query string: Class (by measured Papp) for `O=C(N/N=C/c1ccc(O)c(O)c1)c1cc2ccccc2cc1O`
Result string: band A

---

Listed next: entries and their corresponding Papp.
# run-parameters: pampa; 60.0 min; 50.0 µM

Recorded Papp (molecule `COc1c(C)c2c(c(O)c1C/C=C(\C)CCC(=O)O)C(=O)OC2` ): < 1 ×10⁻⁶ cm/s

---

# run-parameters: pampa; 60.0 min; 50.0 µM
Listed next: entries and their corresponding Papp.
Give a bare numeral; the unit ×10⁻⁶ cm/s is implied.

Please review the following examples before continuing.
{"compound": "O=C(O)C[C@H]1CCc2c1[nH]c1ccc(OCc3ccc(C4CCCC4)c(C(F)(F)F)c3)cc21", "measure-name": "Papp", "quantity-unit": "×10⁻⁶ cm/s", "assay-result": 46}
{"compound": "Cc1ccnc(NC(c2cccc(O)c2)c2ccc3ccc(C)nc3c2O)c1 (stereo not given)", "measure-name": "Papp", "quantity-unit": "×10⁻⁶ cm/s", "assay-result": 115}
{"compound": "O=C(O)[C@@H]1C[C@H]2C[C@@H](CCc3nn[nH]n3)CC[C@H]2CN1", "measure-name": "Papp", "quantity-unit": "×10⁻⁶ cm/s", "assay-result": 3}

Recorded Papp (compound NC1CCN(C(=O)C2CCCN(c3nc(-c4ccccc4)nc4c3CCC4)C2)CC1 (stereo not given) ): 179

---

# run-parameters: pampa; 60.0 min; 50.0 µM
One threshold, 100 ×10⁻⁶ cm/s, splits the recorded Papp values: lower ones are YES, equal or higher ones are NO.

The examples below pair each entry with its known result.
{"molecule": "CC1(C)S[C@@H]2[C@@H](N3C(=O)[C@@H](c4ccccc4)NC3(C)C)C(=O)N2[C@H]1C(=O)O", "assigned-category": "NO"}
{"molecule": "N=c1c2c(-c3ccccc3)c(-c3ccccc3)n(Cc3ccccc3)c2ncn1CCO", "assigned-category": "NO"}
{"molecule": "COCCn1cnc2c(c(-c3ccccc3)cn2Cc2ccccc2)c1=N", "assigned-category": "NO"}
{"molecule": "N=c1c2c(-c3ccccc3)c(-c3ccccc3)n(CCc3ccccc3)c2ncn1CCCO", "assigned-category": "YES"}
{"molecule": "Cc1ccc(-c2c(C(=O)CF)n(CCCO)c3ncnc(N)c23)cc1", "assigned-category": "YES"}
{"molecule": "C1=C(c2cnc[nH]2)c2ccsc2CC1", "assigned-category": "YES"}
{"molecule": "Cn1nnnc1Sc1ncnc2scc(-c3cccc(F)c3)c12", "assigned-category": "NO"}
{"molecule": "Cn1nnnc1Sc1ncnc2scc(-c3ccc4c(c3)OCO4)c12", "assigned-category": "NO"}

Query string: Is Papp of CCCN(CCC)C1CCc2ccc(O)cc2C1 (stereo unspecified) strictly below 100 ×10⁻⁶ cm/s?
Result string: YES

Query string: Is Papp of Cc1nn(C)c(C)c1-c1cccc2c1CCC(N(C)C)C2 (stereo unspecified) strictly below 100 ×10⁻⁶ cm/s?
Result string: YES

Query string: Is Papp of `O=C(Nc1cnn2ccc(N3CCC[C@@H]3c3cc(F)ccc3F)nc12)N1CC[C@H](O)C1` strictly below 100 ×10⁻⁶ cm/s?
Result string: YES

Query string: Is Papp of `Cc1onc(-c2ccccc2)c1C(=O)N[C@@H]1C(=O)N2[C@@H]1SC(C)(C)[C@@H]2C(=O)O` strictly below 100 ×10⁻⁶ cm/s?
Result string: YES

Query string: Is Papp of `CCNC(=O)c1noc(-c2cc(C(C)C)c(O)cc2O)c1-c1ccc(CN2CCOCC2)cc1` strictly below 100 ×10⁻⁶ cm/s?
Result string: NO

Query string: Is Papp of `CC(C)(C)c1ccc2c(c1)CC[C@H]2NC(=O)Nc1cccc2[nH]ncc12` strictly below 100 ×10⁻⁶ cm/s?
Result string: YES

Query string: Is Papp of `COCCN(C)Cc1ccc2nc3sc(C(=O)N(C)C4CCCCC4)cn3c2c1` strictly below 100 ×10⁻⁶ cm/s?
Result string: YES

Query string: Is Papp of `NCCc1ccc(O)c(O)c1` strictly below 100 ×10⁻⁶ cm/s?
Result string: YES

Query string: Is Papp of `CNc1oc(-c2cccc(Cl)c2Cl)nc1C#N` strictly below 100 ×10⁻⁶ cm/s?
Result string: NO

Query string: Is Papp of `CCCCN(CCCC)C(=O)CN1C[C@H](c2ccc3c(c2)OCO3)[C@@H](C(=O)O)[C@@H]1c1ccc(OC)cc1` strictly below 100 ×10⁻⁶ cm/s?
Result string: YES

---

# run-parameters: pampa; 60.0 min; 50.0 µM
One threshold, 100 ×10⁻⁶ cm/s, splits the recorded Papp values: lower ones are TRUE, equal or higher ones are FALSE.

{"compound": "C[C@@]12CCCCC[C@@H](Cc3ccc(O)cc31)[C@H]2N", "assigned-category": "TRUE"}
{"compound": "Cc1ccc(NC(=O)c2ccc(CN3CCNCC3)cc2)cc1Nc1nccc(-c2cccnc2)n1", "assigned-category": "TRUE"}
{"compound": "CNS(=O)(=O)Cc1ccc2[nH]cc(CCN(C)C)c2c1", "assigned-category": "TRUE"}
{"compound": "c1ccc(CNCCNCc2ccccc2)cc1", "assigned-category": "FALSE"}
{"compound": "O=C(Nc1ncc([N+](=O)[O-])s1)c1ccccc1O", "assigned-category": "TRUE"}

Query string: Is Papp of `CC(=O)OC[C@@H]1O[C@@H](n2ccc(=O)[nH]c2=O)[C@H](OC(C)=O)[C@H]1OC(C)=O` strictly below 100 ×10⁻⁶ cm/s?
Result string: TRUE

Query string: Is Papp of `N=c1c2c(-c3ccccc3)cn(Cc3ccc(Br)cc3)c2ncn1CCCN1CCN(c2ccccc2)CC1` strictly below 100 ×10⁻⁶ cm/s?
Result string: FALSE

Query string: Is Papp of `CNCCCOc1cc(F)c(-c2c(Cl)nc3ncnn3c2N[C@@H](C)C(F)(F)F)c(F)c1` strictly below 100 ×10⁻⁶ cm/s?
Result string: TRUE

Query string: Is Papp of `CN(C)CCN(C)C(=O)c1ccc(-c2ncc3cnc(-c4cccc(F)c4)cn23)cc1` strictly below 100 ×10⁻⁶ cm/s?
Result string: TRUE

Query string: Is Papp of `NC(=O)c1ccc(-c2ncc3cnc(-c4cccc(F)c4)cn23)cc1` strictly below 100 ×10⁻⁶ cm/s?
Result string: FALSE

Query string: Is Papp of `COC(=O)N[C@H](C(=O)N1CCC[C@H]1C(=O)Nc1ccc([C@@H]2CC[C@@H](c3ccc(NC(=O)[C@@H]4CCCN4C(=O)[C@@H](NC(=O)OC)C(C)C)cc3)N2c2ccc(C(C)(C)C)cc2)cc1)C(C)C` strictly below 100 ×10⁻⁶ cm/s?
Result string: TRUE

Query string: Is Papp of `Cn1nnnc1Sc1ncnc2scc(-c3ccc(Br)cc3)c12` strictly below 100 ×10⁻⁶ cm/s?
Result string: FALSE

Query string: Is Papp of `CC#CC(=O)N1CCC[C@H]1c1nc(-c2ccc(C(=O)Nc3ccccn3)cc2)c2c(N)nccn12` strictly below 100 ×10⁻⁶ cm/s?
Result string: TRUE

Query string: Is Papp of `CC1=C2C[C@H]3[C@@H](CC[C@@H]4C[C@H](NS(C)(=O)=O)CC[C@@]43C)[C@@H]2CC[C@@]2(C1)O[C@@H]1C[C@H](C)CN[C@H]1[C@H]2C` strictly below 100 ×10⁻⁶ cm/s?
Result string: FALSE

Query string: Is Papp of `CN(C)CCn1cnc2c(c(-c3ccccc3)c(-c3ccccc3)n2CCc2ccccc2)c1=N` strictly below 100 ×10⁻⁶ cm/s?
Result string: FALSE

Query string: Is Papp of CC(=O)OCC1=C(C(=O)O)N2C(=O)C(NC(=O)CCCC(N)C(=O)O)C2SC1 (stereo not drawn) strictly below 100 ×10⁻⁶ cm/s?
Result string: TRUE

Query string: Is Papp of `N=c1c2c(-c3ccccc3)c(-c3ccccc3)n(Cc3ccccc3)c2ncn1C1CCN(Cc2ccccc2)CC1` strictly below 100 ×10⁻⁶ cm/s?
Result string: FALSE

Query string: Is Papp of `Cn1cc(C2=C(c3coc4ccccc34)C(=O)NC2=O)c2cc(Br)ccc21` strictly below 100 ×10⁻⁶ cm/s?
Result string: TRUE
